# Measured Target: NL20 human bronchial epithelial cells expressing human Z-AAT (Homo sapiens, UniProt P01009, E366K)
# Sequence (P01009 25-418 E366K): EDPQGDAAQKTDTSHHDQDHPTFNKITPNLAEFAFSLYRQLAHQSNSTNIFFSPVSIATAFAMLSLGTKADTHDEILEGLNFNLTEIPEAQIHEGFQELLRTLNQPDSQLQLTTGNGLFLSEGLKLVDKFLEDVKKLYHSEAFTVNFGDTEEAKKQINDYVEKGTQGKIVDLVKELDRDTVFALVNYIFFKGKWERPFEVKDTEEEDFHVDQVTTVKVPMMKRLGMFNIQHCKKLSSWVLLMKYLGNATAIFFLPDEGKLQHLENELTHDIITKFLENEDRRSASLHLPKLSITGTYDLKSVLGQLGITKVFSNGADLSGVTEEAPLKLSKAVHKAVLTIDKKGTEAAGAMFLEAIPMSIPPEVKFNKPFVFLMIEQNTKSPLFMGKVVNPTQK
# Assay Details: AAT Function Assay (MSD Assay NL20-SI Cell Line)
# Test Parameters: functionally active AAT (AAT-hNE complex, MSD) from NL20 cells expressing human Z-AAT; read-out: NL20 Functional EC50
# From the text: Example 1: AAT Function Assay (MSD Assay NL20-SI Cell Line) Alpha-1 antitrypsin (AAT) is a SERPIN (serine protease inhibitor) that inactivates enzymes by binding to them covalently. This assay measured the amount of functionally active AAT in a sample in the presence of the disclosed compounds 1-262 by determining the ability of AAT to form an irreversible complex with human neutrophil Elastase (hNE). […]
Quantity Name: EC50

// below: answered molecules
CC(C)c1nc(Oc2ccc(C(=O)O)c(F)c2F)c2cc3[nH]ncc3cc2c1-c1ccc(F)cc1: < 1160 nM
Cc1cc(-c2c(C3CCOCC3)nc(Oc3ccc(NS(C)(=O)=O)cc3)c3cc4[nH]ncc4cc23)ccn1: < 1160 nM
CC(C)c1c(-c2ccc(C(=O)O)cc2)nc2cc3[nH]ncc3cc2c1-c1ccc(F)c(F)c1: < 1160 nM
Cc1c2nc(-c3ccc(C(=O)O)c(F)c3F)c(C(C)C)c(-c3ccc(F)cc3)c2cc2cn[nH]c12: < 1160 nM
CC(C)c1cnc2cc3[nH]ncc3cc2c1-c1ccc(F)cc1: > 3000 nM
CC(C)S(=O)(=O)c1c(-c2ccc(C(N)=O)cc2)nc2cc3[nH]ncc3cc2c1-c1ccc(F)cc1: > 3000 nM
CC(C)c1c(-c2ccc(C(=O)O)cc2)nc2cc3[nH]ncc3cc2c1-c1ccc(F)cc1: < 1160 nM
CC(C)c1c(N2CCC(C(=O)O)CC2)nc2cc3[nH]ncc3cc2c1-c1ccc(F)cc1: < 1160 nM
Cc1cc(-c2c(C3CCOCC3)nc(Oc3ccc(C4NC(=O)NC4=O)cc3)c3cc4[nH]ncc4cc23)ccn1 (centres unmarked): > 3000 nM
COc1cc(-c2c(C(C)C)c(-c3ccc(C(=O)O)cc3)nc3c(C)c4[nH]ncc4cc23)ccc1F: < 1160 nM

## Task For the molecule CC(O[C@H]1C[C@H](Oc2nc(C3CCOCC3)c(-c3ccc(F)cc3)c3cc4cn[nH]c4cc23)C1)C(=O)O (some centres unmarked) [Compound 85] , report EC50.
## Result < 1160 nM

## Task # return recorded EC50 for input `CC(C)c1nc(O[C@H]2C[C@H](OCC(=O)O)C2)c2cc3[nH]ncc3cc2c1-c1ccc(F)cc1`
## Result < 1160 nM

## Task Tell me measured EC50 for `O=C(O)c1ccc(Oc2nc(C3CCOCC3)c(-c3ccc(F)cc3)c3cc4cn[nH]c4cc23)cc1` please.
## Result < 1160 nM

## Task Return EC50 for the following molecule: CC(C(=O)O)N1CC2CC(Oc3nc(C4CCOCC4)c(-c4ccc(F)cc4)c4cc5cn[nH]c5cc34)C2C1 (centres unmarked)
## Result > 3000 nM

## Task Determine its reported EC50: `O=C(O)[C@H]1C[C@H](Oc2nc(C3CCOCC3)c(-c3ccc(F)cc3)c3cc4cn[nH]c4cc23)C1`
## Result < 1160 nM

## Task Note down EC50 recorded for CCOC(=O)CN1CCC2(CC(Oc3nc(C(C)C)c(-c4ccc(F)cc4)c4cc5cn[nH]c5cc34)C2)C1=O (single isomer, unassigned) [Compound 125]
## Result < 1160 nM

## Task Note EC50 for the molecule shown: `Cc1cc(-c2c(C3CCOCC3)nc(OC3CN(C(N)=O)C3)c3cc4[nH]ncc4cc23)ccn1`
## Result > 3000 nM

## Task Return EC50 for the following molecule: Cc1cc(-c2c(C3CCOCC3)nc(O[C@H]3C[C@H](C(=O)N(C)C(C)CO)C3)c3cc4[nH]ncc4cc23)ccn1 (mixture of isomers)
## Result > 3000 nM

## Task Complete the entry with EC50 for `Cc1cncc(-c2c(C(C)C)c(-c3ccc(C(=O)O)cc3)nc3cc4[nH]ncc4cc23)c1`
## Result > 3000 nM

## Task Recall and state the measured EC50 for `Cc1c2nc(Oc3ccc(C(=O)O)cc3)c(C(C)C)c(-c3ccc(F)cc3)c2cc2cn[nH]c12` .
## Result < 1160 nM

## Task For the molecule Cc1cc(-c2c(C3CCOCC3)nc(OC3CN(C(=O)C(C)CO)C3)c3cc4[nH]ncc4cc23)ccn1 (racemic) , report EC50.
## Result > 3000 nM

## Task Give EC50 for the following molecule: `CC(C)c1nc(O[C@H]2C[C@@H](OCC(=O)O)C2)c2cc3[nH]ncc3cc2c1-c1ccc(F)cc1`
## Result < 1160 nM

## Task Please indicate EC50 recorded for `O=C(O)c1cc(F)c(Oc2nc(C3CCOCC3)c(-c3ccc(F)c(F)c3)c3cc4cn[nH]c4cc23)cc1F`
## Result < 1160 nM
